Cited source for all entries: a melting point compilation (Tetko et al.; mined from patent text by program, amines drawn as free bases though some values may be those of a salt)

METRIC NAME: melting point

// below: answered molecules
molecule=CC(C)Oc1nc(C#N)c(C#N)nc1Cl result="48.5 to 50 °C"
molecule=CCCCCCOc1ccc(C(=O)Nc2ccccc2Sc2ccccc2-c2nnn[nH]2)cc1 result="154 to 156 °C"

Query: Look at this molecule and give its reported melting point. CNCC1Cc2cc(F)cc(-c3cc(Cl)ccc3Cl)c2O1 (stereo unspecified)
Result: 118 to 120 °C

Query: Look at this molecule and give its reported melting point. CC(C)CN(C[C@H](O)COc1cccc2[nH]c3ccccc3c12)c1ccc(Oc2ccc(C(N)=O)cn2)cc1
Result: 126 to 142 °C

Query: Look at this molecule and give its reported melting point. Cc1nc2ccc(F)cc2n1C1CC2CC(=O)CC2C1 (stereo unspecified)
Result: 199 to 200 °C

Query: Look at this molecule and give its reported melting point. CCOC(=O)Cc1csc(-c2cc3cccc(N(C)S(=O)(=O)c4cccs4)c3[nH]2)n1
Result: 117 to 118 °C

Query: Look at this molecule and give its reported melting point. Cc1cc2c(cc1-c1ccncc1)C(=O)C(=O)N2
Result: 292 to 294 °C

Query: Look at this molecule and give its reported melting point. Cc1ccc([C@@H](O)C(F)(F)F)cc1
Result: 44.2 °C

Query: Look at this molecule and give its reported melting point. CCc1nc(-c2cccc(C)c2)c(-c2ccnc(NC3CCCC3)c2)s1
Result: 117 to 118 °C

Query: Look at this molecule and give its reported melting point. CNC(=S)C1=C(O)C(C)(COC)Oc2ccc([N+](=O)[O-])cc21 (stereo unspecified)
Result: 139 to 141 °C

Query: Look at this molecule and give its reported melting point. COC(=O)c1ccc(C(=O)Nc2ccccc2OC)cc1
Result: 119 to 121 °C

Query: Look at this molecule and give its reported melting point. O=C(Nc1ccc(C(F)(F)F)cc1)NC1CCN(S(=O)(=O)c2ccc(Cl)cc2)CC1
Result: 266 to 270 °C

Query: Look at this molecule and give its reported melting point. Fc1cc(N2CCN(CCc3coc4ccc(F)cc34)CC2)c2ncccc2c1
Result: 55 °C

Query: Look at this molecule and give its reported melting point. CCn1nc(-c2ccccc2)c(C(C)=O)c(Nc2cccc(F)c2)c1=O
Result: 176 to 178 °C

Query: Look at this molecule and give its reported melting point. COc1nc(C)cnc1NS(=O)(=O)c1cccnc1-c1ccc(NC(C)=O)cc1
Result: 208 to 209 °C

Query: Look at this molecule and give its reported melting point. CCCCCCCCCCOc1ccc(NC(=O)c2ccc(OC(C)=O)cc2)cc1OCCCCCCCCCC
Result: 117 °C

====

melting point values by entry

molecule=COc1ccc(CC(N)=O)cc1C(=O)NCc1ccc(C(F)(F)F)cc1 result="192 to 193 °C"
molecule="CC1(CC(=O)O)OCCc2c1[nH]c1ccccc21 (stereo unspecified)" result="87 to 90 °C"
molecule="CCOC(=O)C1=C(C)NC(c2nccn2C)=NC1c1ccc(F)cc1 (stereo unspecified)" result="134 to 136 °C"
molecule=COC(=O)CCc1ccc(CCc2csc(NC(C)=O)n2)s1 result="104 to 106 °C"
molecule=CCN(CC)c1ccc(N(CC)CC)c(N2CCNCC2)n1 result="120 °C"

Query: Look at this molecule and give its reported melting point. C=C(C)Cc1cc(NC(C)=O)c(C)c(C)c1O
Result: 149 to 151 °C

Query: Look at this molecule and give its reported melting point. Cn1cc(C2=C(c3c4n(c5ccccc35)CCN(C(=O)OC(C)(C)C)C4)C(=O)OC2=O)c2ccccc21
Result: 125 to 127 °C

Query: Look at this molecule and give its reported melting point. CCNCC1CCN(c2c(F)cc3c(=O)c(C(=O)O)cn(CC)c3c2F)C1 (stereo unspecified)
Result: 208 to 210 °C

Query: Look at this molecule and give its reported melting point. CCNS(=O)(=O)Nc1ccc(C(O)(C(F)(F)F)C(F)(F)F)cc1
Result: 178 to 179 °C

Query: Look at this molecule and give its reported melting point. CC(=O)OC(C)C1CCC2C3CC=C4C=CCCC4(C)C3CCC12C (stereo unspecified)
Result: 103 to 104 °C

Query: Look at this molecule and give its reported melting point. O=C(O)c1ccc(CN2C(=O)C3CCCC3=Nc3ccc(Cl)cc32)cc1 (stereo unspecified)
Result: 251 to 255 °C
